Value source: a melting point compilation (Tetko et al.; mined from patent text by program, amines drawn as free bases though some values may be those of a salt)

Attribute Measured: melting point

Please review the entries below; each comes with its answer.
* CCOC(=O)c1cn(-c2nnnn2C)c2nc(Cl)c(F)cc2c1=O | 210 to 215 °C
* COCC(=O)NS(=O)(=O)c1cccc(-c2cccc(-c3cc(-c4ccc(C(F)(F)F)cc4)cc(C)n3)n2)c1 | 188 °C
* c1coc(-c2cc3[nH]ccn3n2)c1 | 186 to 188 °C
* CC1CCCCC1C(=O)Nc1ccc(-c2cnc(-c3ccc(NC(=O)C4CCCCC4)cc3)[nH]2)cc1 (stereo not given) | 221 to 223 °C
* CC(C)c1sc2ncnc(N)c2c1-c1ccc(N)cc1 | 187 to 189 °C
* CC(O)=C(C#N)C(=O)Nc1cc(Br)ccc1Br | 148 to 150 °C
* CC(=Cc1ccccc1)c1ccc2c(c1)C(C)(C)CCC2(C)C | 83 to 85 °C
* N#Cc1cc(-c2ccc(Cl)c(Cl)c2)[nH]c1Cl | > 200 °C

Now take the following compound into account.
Query: I am curious: what melting point value has been reported for O=C(O)c1ccccc1NCCC=C1c2ccccc2CCc2ccccc21 ?
Reply: 164 to 167 °C

###

Attribute Measured: melting point

- CCOC(=O)c1noc(C2CC2)c1C(=O)c1ccc(Br)cc1CSC: 42 to 43 °C
- COC1(C=Cc2ccc(C=O)cc2)OOCCOO1: 95 to 97 °C
- C#CCNC(=O)C(C#N)=C1CC(C)(C)c2cc(OC)c(OC)cc21: 202 to 205 °C

Query: I am curious: what melting point value has been reported for C[C@@H]1C(=O)c2ccccc2O[C@H]1c1ccccc1 (relative stereo) ?
Reply: 99 to 100 °C

Query: I am curious: what melting point value has been reported for Cc1[nH]c2ccccc2c1CCN1CCC(Oc2ccc(F)cc2)CC1 ?
Reply: 97 to 99 °C

Query: I am curious: what melting point value has been reported for Cc1ccc(Cl)cc1NC(=O)c1cc([N+](=O)[O-])ccc1NC(=O)CF ?
Reply: 210 to 212 °C

Query: I am curious: what melting point value has been reported for Cn1ncc(C(=O)N2CCOCC2)c1C(=O)Nc1ccn2nc(-c3cccnc3F)nc2c1 ?
Reply: 267 to 269 °C

Query: I am curious: what melting point value has been reported for CC1OOC2(/C=C\c3ccc(C(F)(F)F)cc3C(F)(F)F)CC1CC(=O)C2C (stereo not given) ?
Reply: 124 °C

Query: I am curious: what melting point value has been reported for CC(C)c1nc(COC(N)=O)n(CCOC(N)=O)c1Sc1cc(Cl)cc(Cl)c1 ?
Reply: 159 to 161 °C

Query: I am curious: what melting point value has been reported for COc1ccc(/C=C/c2ccccc2)c(OC)c1OC ?
Reply: 79 to 82 °C

###

Readings of melting point for the listed compounds

* O=S1(=O)CCN2C=CC=C(c3ccc(Oc4ccc(C(F)(F)F)cc4)cc3)C2=N1 | 253 to 255 °C
* CC(C)c1nn(-c2ccc(C(F)(F)F)cn2)cc1CCCOc1cccc(OC(C)(C)C(=O)O)c1 | 101 to 102 °C

Now take the following compound into account.
Query: I am curious: what melting point value has been reported for CC(=O)C1CC2=C(CO1)C(=O)c1ccccc1C2=O (stereo not drawn) ?
Reply: 135 to 136 °C

###

Readings of melting point for the listed molecules

- CCOC(=O)c1cnc(N)nc1O: 280 °C
- NS(=O)(=O)c1ccc(-c2cnn(-c3ccc(F)cc3)c(=O)c2-c2ccc(F)cc2)cc1: 213 to 216 °C
- Cc1nnc2n1-c1sccc1C(c1ccccc1[N+](=O)[O-])=NC2: 260 to 262 °C

Query: I am curious: what melting point value has been reported for COC(=O)c1cccc2nc(Cl)n(Cc3ccc(-c4ccccc4C#N)cc3)c12 ?
Reply: 154 to 157 °C

Query: I am curious: what melting point value has been reported for CC(C)c1nc(CCCOc2ncccc2CC(=O)O)c(Cc2ccc(Cl)cc2Cl)s1 ?
Reply: 106 to 107 °C

Query: I am curious: what melting point value has been reported for CCCCc1nc2sccc2c(=O)n1CCC ?
Reply: 70 to 72 °C
